- Tested on: Serum Cholesterol
- assay procedure: Serum cholesterol in ovariectomized rat post-menopausal model
- Assay type: in vivo, Sprague Dawley rats
- condition: Rattus norvegicus, po, 96 h; ovariectomized rats, dosed orally daily for 4 days
Assign labels as follows, please: rule met for ED50 below 4 mg/kg; rule not met for ED50 equal to or exceeding 4 mg/kg.

Record excerpt, results attached:
Oc1ccc(-c2sc3cc(O)ccc3c2C(NN2CCCCC2)c2ccc(OCCN3CCCCC3)cc2)cc1 (stereo not drawn)
rule not met
NC(c1ccc(OCCN2CCCCC2)cc1)c1c(-c2ccc(O)cc2)sc2cc(O)ccc12 (stereo not drawn)
rule not met
CCOC(c1ccc(OCCN2CCCCC2)cc1)c1c(-c2ccc(O)cc2)sc2cc(O)ccc12 (stereo not drawn)
rule not met
OCCOC(c1ccc(OCCN2CCCCC2)cc1)c1c(-c2ccc(O)cc2)sc2cc(O)ccc12 (stereo not drawn)
rule met
CCCCOC(c1ccc(OCCN2CCCCC2)cc1)c1c(-c2ccc(O)cc2)sc2cc(O)ccc12 (stereo not drawn)
rule met
Oc1ccc(-c2sc3cc(O)ccc3c2C(c2ccc(OCCN3CCCCC3)cc2)N2CCCCCC2)cc1 (stereo not drawn)
rule not met
CN(C)C(c1ccc(OCCN2CCCCC2)cc1)c1c(-c2ccc(O)cc2)sc2cc(O)ccc12 (stereo not drawn)
rule met
CSC(c1ccc(OCCN2CCCCC2)cc1)c1c(-c2ccc(O)cc2)sc2cc(O)ccc12 (stereo not drawn)
rule not met

Consider now this further molecule.
Determine if COC(c1ccc(OCCN2CCCCC2)cc1)c1c(-c2ccc(O)cc2)sc2cc(O)ccc12 (stereo not drawn) shows ED50 strictly lower than 4 mg/kg. rule met

---

- Test system: Serum Cholesterol
- assay procedure: Serum cholesterol in ovariectomized rat post-menopausal model
- Assay type: in vivo, Sprague Dawley rats
- condition: Rattus norvegicus, po, 96 h; ovariectomized rats, dosed orally daily for 4 days
Assign labels as follows, please: 1 (yes) for ED50 below 2 mg/kg; 0 (no) for ED50 equal to or exceeding 2 mg/kg.

Determine if CC(C)OC(c1ccc(OCCN2CCCCC2)cc1)c1c(-c2ccc(O)cc2)sc2cc(O)ccc12 (stereo not drawn) shows ED50 strictly lower than 2 mg/kg. 0 (no)

Determine if N#CC(c1ccc(OCCN2CCCCC2)cc1)c1c(-c2ccc(O)cc2)sc2cc(O)ccc12 (stereo not drawn) shows ED50 strictly lower than 2 mg/kg. 1 (yes)

Determine if Oc1ccc(C2Sc3cc(O)ccc3C2C(OCc2ccccc2)c2ccc(OCCN3CCCCC3)cc2)cc1 (stereo not drawn) shows ED50 strictly lower than 2 mg/kg. 0 (no)

---

- System: Serum Cholesterol
- assay procedure: Serum cholesterol in ovariectomized rat post-menopausal model
- Format: in vivo, Sprague Dawley rats
- condition: Rattus norvegicus, po, 96 h; ovariectomized rats, dosed orally daily for 4 days
recorded metric: ED50 (mg/kg)
Dear colleague, please return just the value in mg/kg, with no unit written.

Here's what some known entries look like.
CCCOC(c1ccc(OCCN2CCCCC2)cc1)c1c(-c2ccc(O)cc2)sc2cc(O)ccc12 (stereo not drawn)
10
CNC(c1ccc(OCCN2CCCCC2)cc1)c1c(-c2ccc(O)cc2)sc2cc(O)ccc12 (stereo not drawn)
0.8
CCSC(c1ccc(OCCN2CCCCC2)cc1)c1c(-c2ccc(O)cc2)sc2cc(O)ccc12 (stereo not drawn)
1.7
Oc1ccc(-c2sc3cc(O)ccc3c2C(c2ccc(OCCN3CCCCC3)cc2)N2CCCC2)cc1 (stereo not drawn)
10
CCN(CC)C(c1ccc(OCCN2CCCCC2)cc1)c1c(-c2ccc(O)cc2)sc2cc(O)ccc12 (stereo not drawn)
3.8

Respond only with ED50 recorded for N#CCCOC(c1ccc(OCCN2CCCCC2)cc1)c1c(-c2ccc(O)cc2)sc2cc(O)ccc12 (stereo not drawn) 2.4

From: patent US6417199B1
